- assayTarget: KAI2 (Arabidopsis thaliana, UniProt Q9SZU7)
- Sequence (Q9SZU7 whole entry): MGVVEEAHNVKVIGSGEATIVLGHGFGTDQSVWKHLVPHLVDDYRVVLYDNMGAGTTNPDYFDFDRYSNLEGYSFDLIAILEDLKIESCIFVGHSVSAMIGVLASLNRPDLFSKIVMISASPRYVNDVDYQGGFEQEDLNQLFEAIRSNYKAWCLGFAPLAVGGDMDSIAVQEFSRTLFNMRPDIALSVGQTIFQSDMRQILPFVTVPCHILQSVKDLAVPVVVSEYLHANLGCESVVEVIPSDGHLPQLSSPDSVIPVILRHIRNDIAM
- assayProtocol: biochemical
- Set-up: Competitive inhibition of dYLG (0.5 uM) hydrolysis by purified recombinant KAI2, fluorescence read-out
- assayContext: 0.5 uM dYLG substrate, 10 min
testReadout: IC50 (µM)
Write it as a number; the unit µM goes unstated.

Worked examples follow.
{"columns": ["molecule", "assayTarget", "testReadout", "observedValue"],
 "data": [
  ["O=C1C=C[C@@H](Oc2ccc(-c3ccccc3)cc2[N+](=O)[O-])C1 [(−)-1′-carba-dMGer]", "KAI2 (Arabidopsis thaliana, UniProt Q9SZU7)", "IC50", 152],
  ["O=C1C=C[C@@H](Cc2ccc(-c3ccccc3)cc2[N+](=O)[O-])O1 [(−)-6′-carba-dMGer]", "KAI2 (Arabidopsis thaliana, UniProt Q9SZU7)", "IC50", 11]
]}

*Q* Please give the measured IC50 for this molecule: O=C1C=C[C@@H](Oc2ccc(-c3ccccc3)cc2[N+](=O)[O-])O1 [(−)-dMGer]
*A* 3.6

*Q* Please give the measured IC50 for this molecule: O=C1CC(CCc2ccccc2Br)O1 (stereo not shown) [2Br-PEO, 4-(2-bromophenethyl)oxetan-2-one]
*A* 0.22

Values were extracted from paper PMC11874195.
